All values here come from ChEMBL document CHEMBL1795332.

Method: Half life in cynomolgus monkey at 3 mg/kg, po and 1 mg/kg, iv
Type: ADME, organism-based, Macaca fascicularis
Experimental Context: in vivo
Reported Endpoint: half-life (h)
Give the value in h but do not write h after it.

Query :: Return reported half-life. Input compound: `COCCCc1cc(CN(C(=O)[C@H]2CNCC[C@@H]2c2ccn(C)c(=O)c2)C2CC2)cc(Br)c1C`
Result :: 7.8

====

Method: Plasma concentration in cardiac electrophysiology rat model at 10 mg/kg, iv after 0.5 hrs
Assay type: ADME, organism-based
Design: dose 10 mg/kg, route intravenous
Reported Endpoint: concentration at 0.5 h
Report as: number unit

// solved cases for concentration at 0.5 h follow
Item Smiles | Reported Endpoint | Reported Result
COCCCc1cc(Cl)c(Cl)c(CN(C(=O)[C@H]2CNCC[C@@H]2c2ccn(C)c(=O)c2)C2CC2)c1 | concentration at 0.5 h | 7.4 µM
COCCCc1cc(CN(C(=O)[C@H]2CNCC[C@@H]2c2ccn(C)c(=O)c2)C2CC2)cc(Br)c1C | concentration at 0.5 h | 7.9 µM

Turning now to a further record.
Query :: Identify the reported concentration at 0.5 h for the following entry. `COCCCn1cc(CN(C(=O)[C@H]2CNCC[C@@H]2c2ccn(C)c(=O)c2)C2CC2)c2ccccc21`
Result :: 12.7 µM
